System: Candida albicans
Assay: Antifungal activity against Candida albicans after 24 hrs by broth microdilution method
MIC values by entry
result_type: MIC (µg/mL)

* COc1ccc(-c2csc(N/N=C\c3c[nH]c4ccccc34)n2)cc1 | 32
* Cc1ccc(-c2csc(N/N=C\c3ccco3)n2)cc1 | 0.5
* Cc1ccc(-c2csc(N/N=C\c3ccncc3)n2)cc1 | 0.5
* COc1ccc(-c2csc(N/N=C\c3ccncc3)n2)cc1 | 0.125
* COc1ccc(-c2csc(N/N=C(/C)c3cccs3)n2)cc1 | 0.125
* C/C(=N/Nc1nc(-c2ccc(C)cc2)cs1)c1cccnc1 | 0.5
* Clc1ccccc1C(c1ccccc1)(c1ccccc1)n1ccnc1 | 2
* COc1ccc(-c2csc(N/N=C(/C)c3cc4ccccc4oc3=O)n2)cc1 | 2
* C/C(=N/Nc1nc(-c2ccc(C)cc2)cs1)c1ccccn1 | 2
* COc1ccc(-c2csc(N/N=C(/C)c3ccc4ccccc4c3)n2)cc1 | 2
* Cc1ccc(-c2csc(N/N=C\c3ccc4c(c3)OCO4)n2)cc1 | 0.125

* * *

MIC values by entry
Test system: Candida albicans
Assay: Antifungal activity against Candida albicans after 24 hrs by broth microdilution method
result_type: MIC (µg/mL)

* COc1ccc(-c2csc(N/N=C\c3ccc4c(c3)OCO4)n2)cc1 | 0.5
* COc1ccc(-c2csc(N/N=C\c3cccc4ccccc34)n2)cc1 | 4
* Cc1ccc(-c2csc(N/N=C\c3cccnc3)n2)cc1 | 0.125
* C/C(=N/Nc1nc(-c2ccc(C)cc2)cs1)c1cccs1 | 0.5
* COc1ccc(-c2csc(N/N=C\c3cccnc3)n2)cc1 | 4
* COc1ccc(-c2csc(N/N=C(/C)c3cccnc3)n2)cc1 | 8
* Cc1ccc(-c2csc(N/N=C\c3c[nH]c4ccccc34)n2)cc1 | 0.125
* OC(Cn1cncn1)(Cn1cncn1)c1ccc(F)cc1F | 4
* COc1ccc(-c2csc(N/N=C(/C)c3ccco3)n2)cc1 | 0.5
* Cc1ccc(-c2csc(N/N=C\c3cccs3)n2)cc1 | 4
* C/C(=N/Nc1nc(-c2ccc(C)cc2)cs1)c1ccncc1 | 0.5

* * *

System: Candida albicans
Assay: Antifungal activity against Candida albicans after 24 hrs by broth microdilution method
result_type: MIC (µg/mL)

- C/C(=N/Nc1nc(-c2ccc(C)cc2)cs1)c1ccco1: 0.5
- COc1ccc(-c2csc(N/N=C(/C)c3ccncc3)n2)cc1: 0.5
- COc1ccc(-c2csc(N/N=C\c3cccs3)n2)cc1: 0.125
- Cc1ccc(-c2csc(N/N=C\c3cccc4ccccc34)n2)cc1: 2
- C/C(=N/Nc1nc(-c2ccc(C)cc2)cs1)c1ccc2ccccc2c1: 2
- COc1ccc(-c2csc(N/N=C\c3ccco3)n2)cc1: 0.5
- COc1ccc(-c2csc(N/N=C(/C)c3ccccn3)n2)cc1: 0.5
